assay: Interaction with liposome cell membrane models; format: in vitro ADME; settings: 20 °C
observation type: Affinity for a Model Lipid Bilayer, % ratio of liposome-bound EDA analogue (%)

{"columns": ["molecule", "numeric readout"],
 "data": [
  ["COC(=O)c1ccc(N2N=C(C)CC2=O)cc1 [Compound 2c]", 52],
  ["CC1=NN(c2ccccc2)C(=O)C1 [Compound 1, edaravone, reference compound]", 37]
]}

a. CC1=NN(c2ccc(C(=O)O)cc2)C(=O)C1 [Compound 2b]
b. COC(=O)c1ccc(-n2c(=O)cc(C)n2C(=O)OC(C)(C)C)cc1 [Compound 4a]
Problem: Given a and given b , which shows the smaller recorded Affinity for a Model Lipid Bilayer, % ratio of liposome-bound EDA analogue? Let me know the label of the one you choose.
Result: a

The reported measurements were obtained from paper PMC10574562.
